- assay_info: P. aeruginosa biofilm formation inhibitors, primary screen, strain PAO1, LB-PBS medium, absorbance 600 nm (AID 1176); further: test concentration not given here
- assay_context: P. aeruginosa PAO1 growth/biofilm, A600, 12 h; higher = more signal
# z-score per entry

compound | z-score
C/C=C\[C@@H](NCc1ccccc1Br)[C@@H](O)Cc1ccccc1 | -1.61
Cc1ccc(S[C@]2(C(=O)O)CC(=O)N(Cc3ccccc3)[C@@H]2c2ccc(CO)cc2I)cc1 | 0.649
[N-]=[N+]=NCc1ccccc1[C@@H]1OC(c2ccc(OCCCO)cc2)=N[C@]1(Cc1ccccc1)C(=O)N1CCOCC1 | -0.208
CO[C@H]1O[C@H](CO)[C@@H](OC(=O)Nc2ccc3c(c2)OCO3)[C@H](OC(=O)Nc2ccccc2-c2ccccc2)[C@@H]1OC(=O)Nc1ccccc1-c1ccccc1 | 1.14
COc1ccc(O[C@H]2C=C[C@@H](c3ccccc3)O[C@@H]2CON=C[C@@H](C)[C@H](OCc2ccccc2)C(C)C)cc1 | -0.348
CCOC(=O)C1=CC[C@H]2C(=O)N(CC)C(=O)[C@@H]12 | 0.0236
CC(C)C[C@@H]1NC(=O)[C@H]2C[C@@H](C(=O)O)[C@@H](c3ccc(O)cc3)N2C1=O | -0.86
O=C1c2ccccc2[C@@]2(Cc3ccccc3N(C3CC3)C2=O)[C@H](c2ccc(CO)cc2)N1Cc1ccccc1C(F)(F)F | 0.242
COC(=O)CC=C[C@@H](C)[C@@H](C=NO[C@@H](C)c1cc(-c2c(C)cc(C)cc2C)no1)OC | -0.728
CC(C)(C)N1C(=O)[C@H]2[C@H]3[C@H](O)[C@H](O)CC(=NOCc4ccccc4)[C@@H]3CC[C@H]2C1=O | 0.246
Cn1c(=O)n2n(c1=O)[C@H]1[C@H](O)[C@@H]3O[C@@H]3C(=NOC[C@@H](O)COCc3ccco3)[C@H]1CC2 | 0.823
CCN1C(=O)[C@H]2[C@H]3[C@H](O)[C@H](O)CC(=NOCc4ccccc4)[C@H]3CC[C@H]2C1=O | 0.164
CO[C@@H]1COC(=O)CCC[C@@H](C)[C@H](OC)COC(=O)CCC[C@H]1C | -0.667
C=CC[C@@H]1C=C[C@H](ON=C2c3cc(OC)ccc3O[C@H](c3cccc(OC)c3)[C@H]2O)[C@@H](CO)O1 | 0.113
CCOC(=O)C1=CCC(c2cc3ccccc3[nH]2)NC1 (stereo not given) | 0.0083
CC(CCN1CCc2nc(-c3ccccc3)c(-c3ccccc3)cc2C1)=NO[C@@H](C)c1cn([C@H](CO)Cc2ccccc2)nn1 | -0.23
CO[C@H]1COC(=O)[C@H](C)NC(=O)[C@@H](C)COC(=O)CC=C[C@@H]1C | -0.443
CN1C(=O)C2C=CC(C(O)c3ccc(Br)cc3)N(N(c3ccccc3)c3ccccc3)C2C1=O (stereo not given) | 1.01
O=C(NN=C1C[C@@H](O)[C@@H](O)[C@@H]2[C@@H]3C(=O)N(c4ccc(F)cc4F)C(=O)[C@@H]3CC[C@@H]12)OCc1ccccc1 | -1.09
CCCC[C@H]1OB(O)C[C@H]2C1=C(C)C[C@H]1C(=O)N(C)C(=O)[C@H]12 | 0.4
CCOC(=O)[C@H](CC(C)C)NC(=O)CCC1CC(OC(=O)NCCc2ccc(F)cc2)CC2(CCCC(COC(=O)NCc3ccccc3)O2)O1 (stereo not given in full) | -0.613
O=C1[C@H]2[C@H]3[C@H](O)[C@H](O)CC(=NO[C@@H]4O[C@H](CO)[C@@H](O)[C@H](O)[C@H]4O)[C@@H]3CC[C@H]2C(=O)N1c1ccc(F)cc1F | -0.118
CC(C)=CCCC(C)=CCON=C1[C@H]2CCn3c(=O)n(Cc4cc5c(cc4Cl)OCO5)c(=O)n3[C@H]2[C@H](O)[C@@H]2O[C@H]12 | -0.471
COCCCNC(=O)[C@]1(CCC(=O)OC(C)(C)C)N=C(c2ccc(OCCCO)cc2)O[C@@H]1c1ccccc1N=[N+]=[N-] | 0.149
CCc1cc2c(nc1CC)CCN(CCC(C)=NOC[C@@H](O)[C@H]1O[C@@H]3OC(C)(C)O[C@@H]3[C@H]1O)C2 | 0.535
C=CCC(OC(C)=O)[C@@H]1[C@@H](N(Cc2cc3ccccc3o2)C(=O)Cc2ccc(F)cc2)c2cc(OCCCO)ccc2N1C(=O)Cc1ccc(OC)cc1 (stereo not given in full) | 0.632
COc1ccc(O[C@@H]2[C@H](O)CO[C@H]2C=CC#Cc2ccccc2)cc1 | 0.578
COc1ccc([Si](C)(C)[C@H]2[C@H](CCO)O[C@@]3(C(=O)N(Cc4cccc(NC(=O)[C@H](C)O)c4)c4ccccc43)[C@@H]2C)cc1 | 1.19
CCOC(=O)CCN1C(=O)[C@H]2[C@H]3[C@H](O)[C@H](O)CC(=NNC(=O)OCc4ccc(OC)cc4)[C@@H]3CC[C@H]2C1=O | -0.0242
CCCNC(=O)OC[C@H]1O[C@H](CCON=C2[C@H]3CCn4c(=O)n(-c5ccccc5)c(=O)n4[C@H]3[C@H](O)[C@@H]3O[C@H]23)C=C[C@@H]1Oc1ccc(OC)cc1 | 0.0767
